target.or.test.system: His-RcrR (Streptococcus mutans UA159) (UniProt Q8DUK6)
Sequence: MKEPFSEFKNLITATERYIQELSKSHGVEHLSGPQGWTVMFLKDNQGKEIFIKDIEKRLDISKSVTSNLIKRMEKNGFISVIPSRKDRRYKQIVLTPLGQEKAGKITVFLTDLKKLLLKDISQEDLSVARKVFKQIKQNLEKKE
procedure.details: EMSA

| chain | binding |
| --- | --- |
| AGCGGTTTGAGCACTTTCACTACAGCGAAAAAGCAATCGTTTAAAGTGACTTTATCACCATCAAGCTATAAAAAATTAAATTAGTTCTCATAGAAACTTTTTTCTTGACAATAGTTTAAGGAATCATTATAATAGTTTTCATGAGAACTATTATAATATTCTCATAAAAAGTGAGGTGTTTTT (double strand) [P3 (rcrR promoter fragment 3)] | binds |
| AAAAACTCCTTTAAATTTCGTTAAGGATAATTTTGAGCAGTAAAAAAGCTCCTAATATAAAAATAGGAGCTGCCAAATAATAGGCTGGTTTTTTTTATAGATGGCTTCTCCCAAACATCCTTATGTAATTCTTCAATATGGTAACATGAAAATAGGGAAAAAGCAAATTTGTTCAATAAAGCCA (double strand) [P1 (rcrR promoter fragment 1)] | no binding |
| TAAATTTTTCCTAGGTTAACCTAGTCCTCCTTTAATATGATAACAGTACGTTTACTTTTTCATTGTAAACGATTACAAATTTGTTGGCAAGTTGTCCATAGGAAAAAAGCGCAATTTTTGTTAAAATAAAGTCAGTTGTATGCATTTTTTTAGACAAATTAGATTGAATTGCTTA (double strand) [PSMU_2038 (trehalose PTS promoter)] | binds |
| GTCTTAGAAAGTAGTCAGAAGGATTAGACTTGTTTGGAAATGAATTATTCTTTTTATGGTTGTGGCTTTTCTTAAGTAATGAAGGCGAAAAGTGAATAGTCCAGCGGACTATTTTAGAAATTCAAGGGAGTTCCATTCTTTTTGGCGCCCCTAGGTCTTACCAACACCTCATGATAGAACTATA (double strand) [P2 (rcrR promoter fragment 2)] | no binding |

Measured values drawn from paper PMC8407328 for this set.
